- System: PPARg DBDmut IVT, anti-PPARg (DBD mutation: PPARg1 K132A/R137A, NR concentration 270 nM)
- Method Notes: PBM binding z-score (relative to random genomic background probes); higher = stronger binding; sequences stand for … in GC…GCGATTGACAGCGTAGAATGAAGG
Property Measured: PBM binding z-score
Answers are plain numbers.

GCTCGGAGGACAAGGCCAGAGCTTTGTCCGTAGA    -1.33
CAAACTAGGTCACAGAGGTCAAAGCCCGTGCGTA    2.72
CGAACGCGGGCATGAGTTGATAGCAAATGCCGAT    -0.957

I have 3 sequences here; please give me PBM binding z-score for each one.
1. CATCCAAGGTCAGCAGGTCAGTGAAAGCGACGTG
2. TTACCAAGGTGAAAGATCGTTGATGCACGCCTTG
3. TCTTGTAGATCAATAGAGGATAAGAAAGTGCGCT

[0.555, 0.116, 1.05]

I have 8 sequences here; please give me PBM binding z-score for each one.
1. CCCACTGGGCCAAAAAGGTCATTGATGCCGATAA
2. CCGAATGGGGCAAAGGTTACCATACTCAGTACGA
3. CCGATTGGGGCAAGGTTACCATAACGCACAGCCA
4. TCTGCTAGGTCGACGATGGTCAGCTAATCTGCTA
5. CGAACTAGGTCAGCCAGGACAGTGAATACATTGA
6. ACAGACAGGTGATGAAGGTAACTCGGGCTATCAT
7. AAGACAGGGTCACTAGGCCAGAGTAGGTACGAAT
8. CGAACTAGGTCATCCAAGACAGTGAATACATTGA

[-0.939, 0.313, -0.45, -0.108, 0.655, -0.148, 0.999, 2.15]

---

- Tested on: RXRa DBDmut IVT, anti-RXR (DBD mutation: RXRa K156A/R161A, NR concentration 90 nM)
- Method Notes: PBM binding z-score (relative to random genomic background probes); higher = stronger binding; sequences stand for … in GC…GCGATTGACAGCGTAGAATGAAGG
Our labelling divides records by PBM binding z-score into ranges: small value = under 0.6, mid value = from 0.6 up to 2, large value = 2 and over

TCTTGAAGATCAGCAGGTTAAGAAAGCTGGCCAA    small value

Given GCATATAGGCAATACAAGGTGAAAGTCCGATTGT , name the class its PBM binding z-score places it in.
small value

Given AGTCAAAGTTCAGGTCGAGGTAACGTAAAGCACG , name the class its PBM binding z-score places it in.
large value

Given CGCCCAAGGTCAATGCTAGGTCAGTGAAAGCATT , name the class its PBM binding z-score places it in.
large value

Given TGAATGAGGTTATAAGATGAGGGAACGTTGCAAA , name the class its PBM binding z-score places it in.
mid value

Given CGTCCAAGGTCAATGCTAGGTCAGAGAAAGCATT , name the class its PBM binding z-score places it in.
large value

Given ATCCCTAGGTAAAGATAGTTCAGTGAATGCAAAT , name the class its PBM binding z-score places it in.
small value

Given CCTGCTAGGTCATGGTGAGCTAATCTACAGTATG , name the class its PBM binding z-score places it in.
mid value

Given CGAACTAGGTCATCCAGGACAGTCAATACATTGA , name the class its PBM binding z-score places it in.
large value

Given TCAGTCAGGTGAAGGTAACTCAGGTACGCAGTCG , name the class its PBM binding z-score places it in.
mid value

Given GCAGACAGGTGAAACGCAGGTGACTCAGGGTGGC , name the class its PBM binding z-score places it in.
small value

Given ATCTCTAGGTAAGTCTCAGTTCAGTGAAGAACGC , name the class its PBM binding z-score places it in.
mid value

Given CGAACTAGGTCATTGACAGGACGGTGAATAGTAA , name the class its PBM binding z-score places it in.
large value

Given AGAATGACGTTATACGTAGATCAGGGAAGAAAGT , name the class its PBM binding z-score places it in.
small value

Given TCTATTAGTTGGTTAGGGCAACCGAAACAGCGGA , name the class its PBM binding z-score places it in.
mid value

Given TCTAGTTGGTCAAAGGTCACACCCTCGAAATGCG , name the class its PBM binding z-score places it in.
large value

Given TCATATAGGTAAACAGGTGGAAGTCCGTAAGTTA , name the class its PBM binding z-score places it in.
mid value

Given TAGCCTAGGTAATTCAGGGGCCAGTATAGAAAGC , name the class its PBM binding z-score places it in.
small value

---

- Tested on: FXR:RXRa (NR concentration 270 nM, RXRa partner concentration 90 nM)
- Method Notes: PBM binding z-score (relative to random genomic background probes); higher = stronger binding; sequences stand for … in GC…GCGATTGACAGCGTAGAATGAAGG
Class Satisfied: PBM binding z-score at least 1. Class Not satisfied: PBM binding z-score below 1.

Check out these entries, answers already filled in.
CCGTACGGGTCACTGACAGGTTATAGCATTTGGA    Satisfied
TCTATTAGTTAAAGGGCAACCGACGAGTCCGTTT    Not satisfied
CCCCGGAGGACAACAGGAGGTCAGAGCTGCCAGA    Satisfied
CAAACTAGGTCAAAGGTCGAAGTCGAGCCAACCA    Satisfied
TAGCCTAGGTCATTCAGGGGCCAGTATAGAAAGC    Satisfied

Kindly determine if PBM binding z-score recorded for AGTCAAAGTTCAGGACGAGGTAACGTACAGCACG is above or exactly 1.
Satisfied

Kindly determine if PBM binding z-score recorded for ACTAGCAGGCCAAGTTTGGGGCACTCAAACAAAG is above or exactly 1.
Not satisfied

Kindly determine if PBM binding z-score recorded for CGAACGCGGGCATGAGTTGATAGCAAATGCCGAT is above or exactly 1.
Not satisfied

Kindly determine if PBM binding z-score recorded for CAGCCCAGGTCAGGGCCAGTATAGGAGGAACGTT is above or exactly 1.
Satisfied

Kindly determine if PBM binding z-score recorded for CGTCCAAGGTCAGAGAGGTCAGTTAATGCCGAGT is above or exactly 1.
Satisfied

---

- System: PXR:RXRa (NR concentration 270 nM, RXRa partner concentration 90 nM)
- Method Notes: PBM binding z-score (relative to random genomic background probes); higher = stronger binding; sequences stand for … in GC…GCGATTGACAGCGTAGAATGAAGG
Our labelling divides records by PBM binding z-score into ranges: LOW (below 0.6), MEDIUM (0.6 to below 2), HIGH (2 or more)

AGTCAAAGTTCATCTAGGTACCGTAAGATATGCT    HIGH
CTTCGGAGGACAGAAGGTCAGAGCTGTCCGCTTT    MEDIUM
GGAACGAGGGCGTTCGAGTTGATAGCATGGCGAT    MEDIUM
CGTGCAAGGTCAAAGGTCAGTGAAGAGATGACGG    HIGH

Given CCTTACGTGTCACGAGGTTATAGCACGACGAGCG , name the class its PBM binding z-score places it in.
MEDIUM

Given TAACCTAGGTCATGCGGGCCAGTATAGTGTCGGC , name the class its PBM binding z-score places it in.
MEDIUM

Given GCGACTGGGGCAAAGCTGGTTACCATAAGGTTGG , name the class its PBM binding z-score places it in.
LOW

Given CCTGCTAGGTCATGGTCAGCTACTCTACAGTATG , name the class its PBM binding z-score places it in.
MEDIUM

Given AGAACGAGGGCACGCTGAGTTGAGAGCAGAGTAG , name the class its PBM binding z-score places it in.
MEDIUM

Given CCTTACGGGTCACGAGGTTAGAGCACGACGAGCG , name the class its PBM binding z-score places it in.
HIGH

Given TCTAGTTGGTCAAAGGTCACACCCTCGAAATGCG , name the class its PBM binding z-score places it in.
HIGH

Given CGAACTAGGTCATTGAAAGGACAGTGAATAGTAA , name the class its PBM binding z-score places it in.
HIGH

---

- Test system: RARg:RXRa (NR concentration 270 nM, RXRa partner concentration 90 nM)
- Method Notes: PBM binding z-score (relative to random genomic background probes); higher = stronger binding; sequences stand for … in GC…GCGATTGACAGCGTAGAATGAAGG
Class Satisfied: PBM binding z-score at least 0.3. Class Not satisfied: PBM binding z-score below 0.3.

Check out these entries, answers already filled in.
AGAACGAGGGCGCGCTGAGTTGATAGCAGAGTAG    Not satisfied
ATCTCTAGGTAAGACTCAGATCAGTGAAGAACGC    Not satisfied
CCTAGTTGGTCAAAGTCACACACGCTATAGGTAC    Satisfied
CGTCAAAGTTCAAGGTAACGTCACAGAAAGCAGC    Satisfied
CCGACTGGGGCCAGGTTACCATAACGCACAGCCA    Satisfied

Consider the record given below.
Kindly determine if PBM binding z-score recorded for CTACCAAGCTGAACAAGGTCGTTGATTACTATTC is above or exactly 0.3.
Satisfied
